// data source = patent US7713994B2

# Test system: cyclin D1/cdk 4 enzyme (Homo sapiens)
# Construct: made in house; host or cells: Sf9 insect cells, recombinant baculovirus
# Sequence (P11802 whole entry, species assumed): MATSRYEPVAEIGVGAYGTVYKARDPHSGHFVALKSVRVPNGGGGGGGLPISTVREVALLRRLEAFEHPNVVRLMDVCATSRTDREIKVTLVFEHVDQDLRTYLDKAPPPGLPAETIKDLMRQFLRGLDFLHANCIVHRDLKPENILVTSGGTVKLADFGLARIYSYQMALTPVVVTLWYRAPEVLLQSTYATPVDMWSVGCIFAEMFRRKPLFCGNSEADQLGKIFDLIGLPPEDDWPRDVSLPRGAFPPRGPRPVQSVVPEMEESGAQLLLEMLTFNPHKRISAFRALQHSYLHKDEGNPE
# Sequence (P24385 whole entry partner, species assumed): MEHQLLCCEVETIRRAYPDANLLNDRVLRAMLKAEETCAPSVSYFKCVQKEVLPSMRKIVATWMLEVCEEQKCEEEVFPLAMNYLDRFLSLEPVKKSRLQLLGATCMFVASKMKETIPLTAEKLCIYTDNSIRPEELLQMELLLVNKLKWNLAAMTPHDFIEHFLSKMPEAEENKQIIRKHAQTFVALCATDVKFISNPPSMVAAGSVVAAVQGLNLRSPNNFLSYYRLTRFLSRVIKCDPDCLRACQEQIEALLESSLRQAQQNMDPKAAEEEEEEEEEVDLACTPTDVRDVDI
# Assay notes: CDK4 ELISA kinase assay (phospho-Rb ser 795 detection)
# Type: biochemical
# Experimental conditions: In Vitro Enzyme Assay, cyclin D1/cdk 4, read-out: CDK4 IC50
Parameter pIC50: see the listing below.
# pIC50 is unitless: minus log10 of the molar concentration; print number only

Some entries whose results are on file:
NS(=O)(=O)c1ccc(CNC=C2C(=O)NC(=O)c3ccc(-c4ccc(C=CC(=O)O)cc4)cc32)cc1 [Example 759]; 5.77
O=C1NCc2cc(Br)ccc2C1=CNc1ccc(CN2CCCC2)cc1 [Example 847]; 5.30
Cc1nc(NS(=O)(=O)c2ccc(NC=C3C(=O)NC(=O)c4ccccc43)cc2)oc1C [Example 553]; 4.63

What measured pIC50 goes with CN1CCN(c2ccc(NC=C3C(=O)NC(=O)c4ccc(C=Cc5ccc(N)cc5)cc43)cc2)CC1 [Example 725] ? 5.54

What about NS(=O)(=O)c1ccc(CNC=C2C(=O)NC(=O)c3ccc(C=Cn4ccnc4)cc32)cc1 [Example 658] ? 6.72

Query CC(=O)c1cccc(-c2ccc3c(c2)C(=CNCc2ccc(S(N)(=O)=O)cc2)C(=O)NC3=O)c1 [Example 747] next 4.84

Same for O=C1NC(=O)c2ccc(-c3ccco3)cc2/C1=C/NCc1cc(O)ccc1I [Example 503] 7.70

Now the same for O=C1NC(=O)c2ccccc2C1=CNc1c(O)cccc1O [Example 565] 4.42

Follow-up item: N#CCc1ccc(NC=C2C(=O)NC(=O)c3ccc(C=Cc4ccccc4)cc32)cc1 [Example 650] 4.78

====

Listed here are molecules together with their documented pIC50.
# Test system: cyclin B/CDK1 enzyme (Homo sapiens)
# Construct: purchased New England BioLabs; host or cells: Sf9 insect cells, recombinant baculovirus
# Sequence (P06493 whole entry): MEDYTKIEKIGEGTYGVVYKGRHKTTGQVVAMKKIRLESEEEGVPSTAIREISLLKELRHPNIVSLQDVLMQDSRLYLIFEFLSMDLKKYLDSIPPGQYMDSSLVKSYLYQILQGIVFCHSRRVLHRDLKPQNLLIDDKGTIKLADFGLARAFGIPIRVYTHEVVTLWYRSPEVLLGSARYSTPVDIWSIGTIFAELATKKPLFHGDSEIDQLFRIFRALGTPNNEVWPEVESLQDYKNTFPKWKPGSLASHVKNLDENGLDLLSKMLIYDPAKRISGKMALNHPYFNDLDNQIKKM
# Sequence (P14635 whole entry partner): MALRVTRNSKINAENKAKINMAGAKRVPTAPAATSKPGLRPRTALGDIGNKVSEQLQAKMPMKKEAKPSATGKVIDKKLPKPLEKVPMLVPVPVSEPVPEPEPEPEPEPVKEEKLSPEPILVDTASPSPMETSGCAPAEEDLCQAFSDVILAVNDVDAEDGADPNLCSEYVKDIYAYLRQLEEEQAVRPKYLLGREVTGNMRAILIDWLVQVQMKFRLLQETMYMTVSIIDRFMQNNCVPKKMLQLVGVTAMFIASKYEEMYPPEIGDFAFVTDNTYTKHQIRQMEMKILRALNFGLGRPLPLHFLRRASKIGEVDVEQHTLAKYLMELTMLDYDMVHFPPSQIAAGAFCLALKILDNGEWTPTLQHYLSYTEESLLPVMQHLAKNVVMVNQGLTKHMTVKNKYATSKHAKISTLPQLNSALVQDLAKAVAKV
# Assay notes: CDK1 ELISA kinase assay (phospho-Rb ser 795 detection)
# Format: biochemical
# Experimental conditions: In Vitro Enzyme Assays, read-out: CDK1 IC50
Kindly note that pIC50 refers to -log10 of the concentration in mol/L and answer with the value alone.

Consider the worked cases shown below.
CN1CCN(NC(=O)Nc2ccc(N/C=C3\C(=O)NC(=O)c4ccc(Br)cc43)cc2)CC1 [Example 217]; 4.50
CN(C)CCCN1CCC(c2ccc(N/C=C3\C(=O)NC(=O)c4ccc(I)cc43)cc2)CC1 [Example 425]; 4.35

I have this molecule here, CN1Cc2ccc(N/C=C3\C(=O)NC(=O)c4ccc(Br)cc43)cc2C1 [Example 259] , and I need its recorded pIC50. 4.68

Let us now turn to CN(C)CCN(C)c1ccc(N/C=C2\C(=O)NC(=O)c3ccc(Br)cc32)cc1 [Example 231] 4.53

====

Recorded melting point, one value per entry.
Structures can show the parent of a compound that is named as a salt.

Recorded results for 4 compounds are shown here.
O=C1NC(=O)c2ccc(Br)cc2/C1=C/Nc1ccccc1CN1CCCCC1; 170 to 171 °C
C[C@@H]1CN(c2ccc(N/C=C3\C(=O)NC(=O)c4ccc(-c5ccsc5)cc43)cc2)C[C@H](C)N1 (as salt: sodium); 164 to 165 °C
O=C1NC(=O)c2ccc(Cl)cc2/C1=C/Nc1ccc(CN2CCCCC2)cc1; 225 to 226 °C
CN1CCN(c2ccc(N/C=C3\C(=O)NC(=O)c4ccc(-c5cccn5C)cc43)cn2)CC1; 216 to 217 °C

Quick one: melting point of C[C@@H]1CN(c2ccc(N/C=C3\C(=O)NC(=O)c4ccc(Br)cc43)cc2F)C[C@H](C)N1 ? 168 to 169 °C

Let us now turn to CN(C)C(=O)c1ccc2c(c1)/C(=C/Nc1ccc(CN3CCCCC3)cc1)C(=O)NC2=O 266 to 267 °C (dec.)

For COc1ccc(-c2ccc3c(c2)/C(=C/Nc2cnc(N4C[C@@H](C)N[C@@H](C)C4)c(C)c2)C(=O)NC3=O)cc1 then? 213 to 214 °C

Same lookup for Nc1ccc(CN/C=C2\C(=O)NC(=O)c3ccc(Br)cc32)cc1O , please. 245 to 246 °C

====

Quantity: melting point

O=C1NC(=O)c2ccc(-c3ccsc3)cc2/C1=C/Nc1cc(F)c(N2CCN3CCC[C@H]3C2)c(F)c1; 190 to 191 °C
CN1CCN(c2ccc(N/C=C3\C(=O)NC(=O)c4ccc(-c5ccc(F)cc5)cc43)cc2F)CC1; 166 to 167 °C
O=C1NC(=O)c2ccccc2/C1=C/NCc1ccc(O)cc1; 272 to 273 °C
CCCNc1ccc(CN/C=C2\C(=O)NC(=O)c3ccc(I)cc32)cc1O; 236 to 237 °C
CC(C)N1CCN(c2ccc(N/C=C3\C(=O)NC(=O)c4ccc(-c5ccoc5)cc43)nc2)CC1; 278 to 279 °C

Quick check: melting point of Cc1cc(N/C=C2\C(=O)NC(=O)c3ccc(-c4ccsc4)cc32)cnc1N1C[C@@H](C)N[C@@H](C)C1 ? 219 to 220 °C

Quick one: O=C1NC(=O)c2ccccc2/C1=C/Nc1ccc(CCN2CCCC2)cc1 224 to 225 °C

What about this compound? COc1coc(CNC=C2C(=O)NC(=O)c3ccc(-n4cccc4)cc32)cc1=O 251 to 254 °C (dec.)

====

# Tested on: HCT-116
# Assay notes: Cytotoxicity assay (SRB), HCT-116
# Type: cell-based
# Experimental conditions: Homo sapiens, HCT-116, 72 h, HCT116 cells, SRB, three days; read-out: In Vitro Cellular Activity IC50 HCT116
pIC50: −log10 of the molar value.
Response key: met means pIC50 >= 5; not met means pIC50 < 5.

Known results for compounds:
O=C1NC(=O)c2ccc(-c3ccsc3)cc2/C1=C/Nc1cc(F)c(N2CCN3CCC[C@H]3C2)c(F)c1 [Example 371]; met
COCC#Cc1ccc2c(c1)/C(=C/Nc1ccc(N3CCN(C)CC3)cc1)C(=O)NC2=O [Example 177]; met
O=C1NC(=O)c2ccc(Br)cc2/C1=C/Nc1ccc(CN2CCSC2)cc1 [Example 281]; not met
CC(C)C(=O)Nc1ccc(CN/C=C2\C(=O)NC(=O)c3ccc(I)cc32)cc1O [Example 335]; met
O=C1NC(=O)c2ccc(-n3cccc3)cc2/C1=C/Nc1ccc(CN2CCCCC2)cc1 [Example 74]; met

Then this compound:
// inclusive: pIC50 at least 5? input: CN(C)CCCN(C)c1ccc(N/C=C2\C(=O)NC(=O)c3ccc(Br)cc32)cc1 [Example 275] met

====

# Test system: cyclin D1/cdk 4 enzyme (Homo sapiens)
# Construct: made in house; host or cells: Sf9 insect cells, recombinant baculovirus
# Assay notes: CDK4 ELISA kinase assay (phospho-Rb ser 795 detection)
# Type: biochemical
# Experimental conditions: In Vitro Enzyme Assays, 200 μM ATP, read-out: CDK4 IC50
pIC50: −log10 of the molar value.
Binary classification by pIC50, with 6 as an inclusive lower bound for yes (1); all other cases are no (0).

Examples with answers:
CN1CCN(c2ccc(N/C=C3\C(=O)NC(=O)c4ccc(-c5ccsc5)cc43)cc2)CC1 [Example 107]; yes (1)
COc1cc(CN/C=C2\C(=O)NC(=O)c3ccc(-c4ccsc4)cc32)cc(O)c1OC; yes (1)
CONCCCc1ccc(N/C=C2\C(=O)NC(=O)c3ccc(Br)cc32)cc1; no (0)

Could you please find out whether O=C1NC(=O)c2ccccc2/C1=C/Nc1ccc(CN2CCCCCC2)cc1 has pIC50 that meets 6 or exceeds it? no (0)

Next compound: COc1ccc(C(=O)NN/C=C2\C(=O)NC(=O)c3ccc(Br)cc32)cc1O no (0)

Record: CN1CCN(c2ccc(N/C=C3\C(=O)NC(=O)c4ccc(-c5ccc(-c6cccs6)s5)cc43)cc2)CC1 no (0)

Proceed to CN1CCN(c2ccc3c(c2)/C(=C/Nc2ccc(CN4CCCCC4)cc2)C(=O)NC3=O)CC1 no (0)

Would you kindly repeat that for CCCOc1ccc(CNC=C2C(=O)NC(=O)c3ccc(-n4cccc4)cc32)cc1O ? yes (1)

And Nc1cc(CN/C=C2\C(=O)NC(=O)c3ccc(Br)cc32)cc(O)c1O ? yes (1)

What would you report for CN(C)CCN(C)c1ccc(N/C=C2\C(=O)NC(=O)c3ccc(Br)cc32)cc1 ? no (0)

Queued: CN1CCN(c2ccc(N/C=C3\C(=O)NC(=O)c4ccc(-c5ccc(F)cc5)cc43)cc2)CC1 yes (1)

And then CCN1CCN(c2ccc(N/C=C3\C(=O)NC(=O)c4ccc(I)cc43)cc2)CC1 , what is it? yes (1)

Also O=C1NC(=O)c2ccc(-c3ccsc3)cc2/C1=C/Nc1cc(F)c(N2CCN3CCC[C@H]3C2)c(F)c1 ? yes (1)

Moving on to CN1CCN(c2ccc(N/C=C3\C(=O)NC(=O)c4ccc(-c5ccc(C=O)o5)cc43)cc2)CC1 yes (1)
